- test.summary: Stability test (influencing factors: light, high temperature, high humidity)
- Format: physicochemical
- run.conditions: high humidity 92.5% RH, Day 5

molecule | total impurity %, %
CN([C@@H]1CCc2c(CC(=O)[O-])c3cccnc3n2C1)S(=O)(=O)c1ccc(F)cc1.[Na+] [Sodium salt hydrate] | 0.07
CN([C@@H]1CCc2c(CC(=O)O)c3cccnc3n2C1)S(=O)(=O)c1ccc(F)cc1 (racemic) [Compound A] | 0.31
CN([C@@H]1CCc2c(CC(=O)[O-])c3cccnc3n2C1)S(=O)(=O)c1ccc(F)cc1.[Li+] [Lithium salt hydrate] | 0.72
CN([C@@H]1CCc2c(CC(=O)[O-])c3cccnc3n2C1)S(=O)(=O)c1ccc(F)cc1.[K+] [Potassium salt hydrate] | 0.45

###

- test.summary: Stability test (influencing factors: light, high temperature, high humidity)
- Type: physicochemical
- run.conditions: high temperature 60° C., Day 10
The compounds listed here are annotated with their maximum single impurity %.
property.measured: maximum single impurity % (%)

compound | quantitative.result
CN([C@@H]1CCc2c(CC(=O)O)c3cccnc3n2C1)S(=O)(=O)c1ccc(F)cc1 (racemic) [Compound A] | 0.08
CN([C@@H]1CCc2c(CC(=O)[O-])c3cccnc3n2C1)S(=O)(=O)c1ccc(F)cc1.[K+] [Potassium salt hydrate] | 0.33
CN([C@@H]1CCc2c(CC(=O)[O-])c3cccnc3n2C1)S(=O)(=O)c1ccc(F)cc1.[Li+] [Lithium salt hydrate] | 0.56
CN([C@@H]1CCc2c(CC(=O)[O-])c3cccnc3n2C1)S(=O)(=O)c1ccc(F)cc1.[Na+] [Sodium salt hydrate] | 0.02

###

- test.summary: Solubility test in media with different pH
- Assay type: physicochemical
- run.conditions: thermodynamic from solid; purified water, room temperature of 25° C.; read-out: Solubility, purified water

compound | solubility, µg/mL
CN([C@@H]1CCc2c(CC(=O)O)c3cccnc3n2C1)S(=O)(=O)c1ccc(F)cc1 (racemic) | 2

###

- test.summary: Solubility test in media with different pH
- Type: physicochemical
- run.conditions: pH 1.0 medium (dilute hydrochloric acid), pH 1, simulated gastric fluid, thermodynamic from solid; pH1.0 medium, room temperature of 25° C.; read-out: Solubility, pH = 1.0
property.measured: solubility

compound | result
CN([C@@H]1CCc2c(CC(=O)O)c3cccnc3n2C1)S(=O)(=O)c1ccc(F)cc1 (racemic) | 1.25 µg/mL

###

- test.summary: Stability test (influencing factors: light, high temperature, high humidity)
- Format: physicochemical
- run.conditions: high temperature 60° C., Day 10
property.measured: total impurity % (%)

compound | quantitative.result
CN([C@@H]1CCc2c(CC(=O)[O-])c3cccnc3n2C1)S(=O)(=O)c1ccc(F)cc1.[K+] [Potassium salt hydrate] | 0.45
CN([C@@H]1CCc2c(CC(=O)O)c3cccnc3n2C1)S(=O)(=O)c1ccc(F)cc1 (racemic) | 0.25
CN([C@@H]1CCc2c(CC(=O)[O-])c3cccnc3n2C1)S(=O)(=O)c1ccc(F)cc1.[Na+] [Sodium salt hydrate] | 0.09
CN([C@@H]1CCc2c(CC(=O)[O-])c3cccnc3n2C1)S(=O)(=O)c1ccc(F)cc1.[Li+] [Lithium salt hydrate] | 0.78

###

- test.summary: Stability test (influencing factors: light, high temperature, high humidity)
- Type: physicochemical
- run.conditions: light condition 4500 lx±500 lx, Day 10

compound | unit.abbrev | maximum single impurity %
CN([C@@H]1CCc2c(CC(=O)[O-])c3cccnc3n2C1)S(=O)(=O)c1ccc(F)cc1.[Li+] [Lithium salt hydrate] | % | 0.78
CN([C@@H]1CCc2c(CC(=O)[O-])c3cccnc3n2C1)S(=O)(=O)c1ccc(F)cc1.[K+] [Potassium salt hydrate] | % | 0.33
CN([C@@H]1CCc2c(CC(=O)[O-])c3cccnc3n2C1)S(=O)(=O)c1ccc(F)cc1.[Na+] [Sodium salt hydrate] | % | 0.15
CN([C@@H]1CCc2c(CC(=O)O)c3cccnc3n2C1)S(=O)(=O)c1ccc(F)cc1 (racemic) | % | 15.02

###

- test.summary: Stability test (influencing factors: light, high temperature, high humidity)
- Assay type: physicochemical
- run.conditions: high humidity 92.5% RH, Day 10

compound | unit.abbrev | maximum single impurity %
CN([C@@H]1CCc2c(CC(=O)[O-])c3cccnc3n2C1)S(=O)(=O)c1ccc(F)cc1.[Na+] [Sodium salt hydrate] | % | 0.02
CN([C@@H]1CCc2c(CC(=O)[O-])c3cccnc3n2C1)S(=O)(=O)c1ccc(F)cc1.[Li+] [Lithium salt hydrate] | % | 0.56
CN([C@@H]1CCc2c(CC(=O)O)c3cccnc3n2C1)S(=O)(=O)c1ccc(F)cc1 (racemic) | % | 0.07
CN([C@@H]1CCc2c(CC(=O)[O-])c3cccnc3n2C1)S(=O)(=O)c1ccc(F)cc1.[K+] [Potassium salt hydrate] | % | 0.31

###

The compounds listed here are annotated with their total impurity %.
- test.summary: Stability test (influencing factors: light, high temperature, high humidity)
- Type: physicochemical
- run.conditions: high temperature 60° C., Day 5
property.measured: total impurity % (%)

compound | property.measured | quantitative.result
CN([C@@H]1CCc2c(CC(=O)O)c3cccnc3n2C1)S(=O)(=O)c1ccc(F)cc1 (racemic) | total impurity % | 0.24
CN([C@@H]1CCc2c(CC(=O)[O-])c3cccnc3n2C1)S(=O)(=O)c1ccc(F)cc1.[Na+] [Sodium salt hydrate] | total impurity % | 0.07
CN([C@@H]1CCc2c(CC(=O)[O-])c3cccnc3n2C1)S(=O)(=O)c1ccc(F)cc1.[K+] [Potassium salt hydrate] | total impurity % | 0.45
CN([C@@H]1CCc2c(CC(=O)[O-])c3cccnc3n2C1)S(=O)(=O)c1ccc(F)cc1.[Li+] [Lithium salt hydrate] | total impurity % | 0.79

###

- test.summary: Stability test (influencing factors: light, high temperature, high humidity)
- Format: physicochemical
- run.conditions: light condition 4500 lx±500 lx, Day 5
The compounds listed here are annotated with their maximum single impurity %.

compound | maximum single impurity % [%]
CN([C@@H]1CCc2c(CC(=O)[O-])c3cccnc3n2C1)S(=O)(=O)c1ccc(F)cc1.[Na+] [Sodium salt hydrate] | 0.06
CN([C@@H]1CCc2c(CC(=O)[O-])c3cccnc3n2C1)S(=O)(=O)c1ccc(F)cc1.[Li+] [Lithium salt hydrate] | 0.61
CN([C@@H]1CCc2c(CC(=O)O)c3cccnc3n2C1)S(=O)(=O)c1ccc(F)cc1 (racemic) [Compound A] | 4.66
CN([C@@H]1CCc2c(CC(=O)[O-])c3cccnc3n2C1)S(=O)(=O)c1ccc(F)cc1.[K+] [Potassium salt hydrate] | 0.33
